test system: ACHN renal; assay: NCI tumour cell line growth inhibition, 48 h
Endpoint name: TGI

Compound: Cc1ccc(C2SCc3nc4ccc(C(=O)c5ccccc5)cc4n32)cc1 (stereo unspecified)
Result: > 56.9 µM
//
Compound: Cc1ccc2[nH]c(C(=O)NN3C(=O)CSC34CCCC(C)C4)c(-c3ccccc3)c2c1 (stereo unspecified)
Result: 36.1 µM
//
Compound: CCCCCCNC(=O)Oc1ccc(/C(=C(\C)c2ccccc2)c2ccc(OCCN3CCCCC3)cc2)cc1
Result: 10.9 µM
//
Compound: COc1cccc(Cn2cc3c(c2)-c2oncc2CC3)c1
Result: > 100 µM
//
Compound: CC[C@@H](C)[C@H]([C@H](CC(=O)N1CCC[C@@H]1[C@@H](OC)[C@H](C)C(=O)N[C@H](Cc1ccccc1)c1nccs1)OC)N(C)C(=O)[C@H](NC(=O)[C@@H](C(C)C)N(C)C)C(C)C
Result: > 100 µM
//
Compound: Cn1c2ccccc2c(=O)c2c(O)cc3c(c21)C=CC1(CCCC1)O3
Result: > 100 µM
